molecular target: Glycogen synthase kinase-3 (Sus scrofa, UniProt B2LUN4+I6LNT8); assay: Inhibition of porcine brain GSK3alpha/beta using GS-1 substrate and ATP
Recorded Metric: IC50 (nM)
Express it in nM; write the number only.

[
  {
    "Compound": "CO[C@@H]1CCN2C(=O)c3cccc(NC(=O)Nc4cnccn4)c3[C@@H]2C1 (relative stereo)",
    "Recorded Metric": "IC50",
    "Experimental Result": 200
  },
  {
    "Compound": "O=C1CCN2C(=O)c3cccc(NC(=O)Nc4cnccn4)c3C2C1 (stereo not drawn)",
    "Recorded Metric": "IC50",
    "Experimental Result": 1200
  }
]

Field: next compound
Task item: Item: CO[C@@H]1CCN2C(=O)c3cccc(NC(=O)Nc4cccc(C)n4)c3[C@@H]2C1 (relative stereo) Test system: Glycogen synthase kinase-3 (Sus scrofa, UniProt B2LUN4+I6LNT8) Read-out: IC50 Value: ?
Reply: 320
